Recorded EC50 (nM), ferroportin internalization/degradation assay values for a group of binders are listed next.
- testedOn: T1, human ferroportin (SLC40A1) fused in frame with GFP, stably expressed on HEK293 cells (human, UniProt Q9NP59 1-571)
- T1 sequence (looked up): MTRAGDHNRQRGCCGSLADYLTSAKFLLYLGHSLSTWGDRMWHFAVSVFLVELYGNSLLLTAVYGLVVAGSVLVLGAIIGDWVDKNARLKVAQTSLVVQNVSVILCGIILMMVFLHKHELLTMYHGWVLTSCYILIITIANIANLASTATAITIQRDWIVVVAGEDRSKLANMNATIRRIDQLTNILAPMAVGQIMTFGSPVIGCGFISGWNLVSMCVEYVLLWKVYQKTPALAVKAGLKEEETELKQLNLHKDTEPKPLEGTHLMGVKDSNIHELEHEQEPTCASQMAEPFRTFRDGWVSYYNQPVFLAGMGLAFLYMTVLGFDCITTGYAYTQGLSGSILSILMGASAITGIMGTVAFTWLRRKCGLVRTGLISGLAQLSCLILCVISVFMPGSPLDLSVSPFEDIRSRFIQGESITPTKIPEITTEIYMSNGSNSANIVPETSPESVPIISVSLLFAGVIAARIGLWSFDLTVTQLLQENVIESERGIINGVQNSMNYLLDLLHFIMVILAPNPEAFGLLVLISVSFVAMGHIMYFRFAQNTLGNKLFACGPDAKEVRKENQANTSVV
- protocolSummary: cell-based or functional assay
Bridge positions count the residues as written; N and C are the ends. * marks the point of attachment. Isovaleryl = CC(C)CC(=O)*

Here are 4 binders together with their reported answers.
H-DTHFPCRIFGPRSRGWVCK-NH2 (disulfide 6-18 (inferred)) [Hy-DTHFPCRIFGPRSRGWVCK-NH2]    > 1000 nM
H-DTHFPCIFGPRSKGWVC-NH2 (disulfide 6-17 (inferred)) [Hy-DTHFPCIFGPRSKGWVC-NH2]    > 1000 nM
H-DTHFPCRRF-NH2 [Hy-DTHFPCRRF-NH2]    > 10000 nM
H-DTHFPCQIF-NH2 [Hy-DTHFPCQIF-NH2]    > 1000 nM

// next item, EC50 (nM), ferroportin internalization/degradation assay requested
Problem: Looking for the measured EC50 (nM), ferroportin internalization/degradation assay of Isovaleryl-DTHFPCRRFGPRSKGWVCK-NH2 (disulfide 6-18 (inferred)) [Isovaleric acid-DTHFPCRRFGPRSKGWVCK-NH2] , can you help?
Solution: > 1000 nM
